This collection of values is drawn from the RNAGym collection of RNA variant scans (doi:10.1073/pnas.2313332121).

B1: TPR t1 (parent)
chain: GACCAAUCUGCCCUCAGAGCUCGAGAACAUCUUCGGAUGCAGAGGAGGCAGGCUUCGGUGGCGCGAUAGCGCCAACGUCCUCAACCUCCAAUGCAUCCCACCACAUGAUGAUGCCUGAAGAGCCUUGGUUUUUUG

# Variants of: B1
# assay: polymerase ribozyme fitness, log enrichment relative to wild type (log ratio); higher = more active; in vitro selection for triplet polymerase activity
Label scheme for polymerase ribozyme fitness (log ratio): lower than -3 is false (0), -3 and above is true (1).

• G47C C56A G110U = false (0)
• C8A C13G C80U = true (1)
• G127U U132C = true (1)
• A16C G42A = false (0)
• C4G A18C C22U C72G G93U U109C G117C = false (0)
• A2U A108G = false (0)
• G69A C86A C99U G110C = false (0)
• G10U U21A G60U G71A C89U C101U C124A = false (0)
• C72U G110C = false (0)
• G42A G45U = true (1)
• G44U C49A G110A = false (0)
• A18U A75U C76G U129G = false (0)
• A18C U78A U112G G122U = false (0)
• C15A G23U C72G C98A C114G U116A = false (0)
• A24G G110A U116G C124A = false (0)
• A24G G42U G45A C72G C88A A121G U125C = true (1)
• C49A C64U = true (1)
• A6U C11U C28U C34A C73A G110A = true (1)
• G45A A50G G93C = true (1)
• C3G C72G = true (1)
• C99A G120C = false (0)
• U7A G93C = true (1)
• C15U C72A A83C C89U C97U = false (0)
• A74U U78A C85U C114U = false (0)
• A2G C20A C88U = false (0)
• G63C U130C = true (1)
